Biological target: M2 muscarinic receptor (Homo sapiens)
Construct: expressed in transfected cells; host or cells: CHO (M2-CHO)
Sequence (P08172 whole entry): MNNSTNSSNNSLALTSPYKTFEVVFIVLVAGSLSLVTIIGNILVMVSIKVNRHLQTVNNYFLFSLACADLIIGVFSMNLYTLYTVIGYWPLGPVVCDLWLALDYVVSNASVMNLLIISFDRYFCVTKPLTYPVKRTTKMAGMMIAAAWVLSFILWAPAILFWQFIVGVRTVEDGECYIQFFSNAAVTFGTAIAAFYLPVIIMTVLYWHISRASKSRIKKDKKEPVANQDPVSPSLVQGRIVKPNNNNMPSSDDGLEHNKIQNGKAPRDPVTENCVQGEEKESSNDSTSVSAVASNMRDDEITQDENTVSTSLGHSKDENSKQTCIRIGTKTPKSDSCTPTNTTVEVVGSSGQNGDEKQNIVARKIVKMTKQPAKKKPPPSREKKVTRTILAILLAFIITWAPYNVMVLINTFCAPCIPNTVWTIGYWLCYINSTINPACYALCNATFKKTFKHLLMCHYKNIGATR
Assay: Functional mobilization of intracellular calcium (FLIPR), M2-CHO cells
Format: cell-based
Conditions: 100% efficacy = maximum response obtained with the Carbachol control
Here the recorded Emax is given for each entry.

{"columns": ["molecule", "Emax"],
 "data": [
  ["COc1ccc(OC)c(C2CCN(CC3C[C@H]4CC[C@H]3C4)CC2)c1 (some centres unmarked)", "< 25%"],
  ["COc1ccc(-c2ccc(S(=O)(=O)N3CCCC3)cc2)cc1C1CCN(C2CC3CCC(C3)C2)CC1 (centres unmarked)", "< 25%"],
  ["COc1ccc(F)cc1C1(F)CCN(C2CC3CCC(C3)C2)CC1 (centres unmarked)", "25 to 100%"],
  ["COc1ccc(Cl)cc1C1CCN(CC2CC3C=CC2C3)CC1 (centres unmarked)", "25 to 100%"],
  ["CCOC(=O)N1CCC(CN2CCC(c3cc(-c4ccc5c(c4)OCO5)ccc3OC)CC2)CC1", "< 25%"],
  ["COc1ccc(C(F)(F)F)cc1C1CCN(C2C[C@H]3CC[C@H]2C3)CC1 (some centres unmarked)", "< 25%"],
  ["CCOC(=O)N1C2CCC1CC(N1CCC(c3cc(-c4ccc(C(C)(C)C#N)cc4)ccc3OC)CC1)C2 (centres unmarked)", "< 25%"],
  ["COc1ccccc1C1CCN(C2CCOCC2)CC1O (centres unmarked)", "< 25%"],
  ["COc1ccc(C(C)=O)cc1C1CCN([C@H]2C[C@H]3CC[C@H]2C3)CC1", "< 25%"],
  ["COc1ccc(-c2ccc(C(F)(F)F)cc2)cc1C1CCN([C@H]2C[C@H]3CC[C@H]2C3)CC1", "< 25%"],
  ["Cc1ccc(C(=O)COc2ccccc2C2CCN([C@H]3C[C@H]4CC[C@H]3C4)CC2)cc1", "25 to 100%"],
  ["CCc1ccc(OC)c(C2CCN([C@@H]3C[C@H]4CC[C@H]3C4)CC2)c1", "< 25%"],
  ["CCS(=O)(=O)c1ccc(-c2ccc(OC)c(C3CCN([C@H]4C[C@H]5CC[C@H]4C5)CC3)c2)cc1", "< 25%"],
  ["COc1ccc(Cl)cc1C1(OC)CCN(C2CCCCCC2)CC1", "< 25%"],
  ["CNC(=O)c1ccc(-c2ccc(OC)c(C3CCN(C4CCOCC4)CC3)c2)cc1", "< 25%"],
  ["COc1ccc(-c2ccc(C(C)(C)C#N)cc2)cc1C1CCN(C2CC3CCC(C3)C2)CC1 (centres unmarked)", "< 25%"],
  ["COc1ccc(-c2ccc(S(C)(=O)=O)cc2)cc1C1CCN(C2CCCC2)CC1", "25 to 100%"],
  ["COc1ccc(F)cc1C1(OC)CCN(C2CC3CCC(C3)C2)CC1 (centres unmarked)", "< 25%"],
  ["Cc1ccc(F)cc1C1CCN(C2C[C@H]3CC[C@H]2C3)CC1 (some centres unmarked)", "25 to 100%"],
  ["CCC1(O)CCC(N2CCC(c3cc(Cl)ccc3OC)CC2)CC1 (centres unmarked)", "< 25%"],
  ["COc1ccc(Cl)cc1C1CCN(C2CCC(F)(F)CC2)CC1", "< 25%"],
  ["COc1ccc(-c2cccc(C(N)=O)c2)cc1C1CCN([C@@H]2C[C@H]3CC[C@H]2C3)CC1", "< 25%"],
  ["CCOC(=O)N1C2CCC1CC(N1CCC(c3cc(F)ccc3OC)CC1)C2 (centres unmarked)", "25 to 100%"],
  ["FC(F)(F)c1ccccc1C1CCN(C2C[C@H]3CC[C@H]2C3)CC1 (some centres unmarked)", "< 25%"],
  ["CCOC(=O)N1CCC(CN2CCC(c3ccccc3C)CC2)CC1", "25 to 100%"],
  ["COc1ccc(-c2ccc(C(N)=O)cc2)cc1C1CCN([C@H]2C[C@H]3CC[C@H]2C3)CC1", "< 25%"],
  ["Cc1ccc(F)c(C2CCN(C3C[C@H]4CC[C@H]3C4)CC2)c1 (some centres unmarked)", "25 to 100%"],
  ["COc1ccc(C(=O)C2CC2)cc1C1CCN([C@H]2C[C@H]3CC[C@H]2C3)CC1", "< 25%"],
  ["CNC(=O)c1ccc(-c2ccc(OC)c(C3CCN(C4CCCCC4)CC3)c2)cc1", "< 25%"],
  ["O=C(COc1ccccc1C1CCN([C@H]2C[C@H]3CC[C@H]2C3)CC1)c1ccc(F)cc1", "25 to 100%"],
  ["COc1ccc(F)cc1C1CCN(C2CC3CCC2C3)CC1 (centres unmarked)", "25 to 100%"],
  ["CCCC1CCC(N2CCC(F)(c3cc(Cl)ccc3OC)CC2)CC1 (centres unmarked)", "25 to 100%"]
]}
